System: barnyardgrass (Echinochloa crus-galli)
assay text: Test A greenhouse herbicide test, pre- and postemergence
Assay type: in vivo
experimental context: Preemergence, 500 g ai/ha; 0 to 100 scale, 0 no effect, 100 complete control
Could you please report measured Plant response rating, Barnyardgrass for the items listed next?

These recorded examples may help you get a feel for the data.
smiles repr | target of assay | Plant response rating, Barnyardgrass
Cc1ccc2ccccc2c1-c1c(O)cnn(C)c1=O | barnyardgrass (Echinochloa crus-galli) | 50
Cc1cc(C)c2sc(C)c(-c3c(OC(=O)OC(C)C)c(C)nn(C)c3=O)c2c1 | barnyardgrass (Echinochloa crus-galli) | 90
CCC(=O)Oc1c(C)nn(C)c(=O)c1-c1c(C)sc2c(C)cc(C)cc12 | barnyardgrass (Echinochloa crus-galli) | 90
COc1nn(C)c(=O)c(-c2c(C)ccc3ccccc23)c1O | barnyardgrass (Echinochloa crus-galli) | 90

Please look up its Plant response rating, Barnyardgrass: Cc1ccc2ccccc2c1-c1c(OC(=O)C2CC2)c(C)nn(C)c1=O
30

Origin of the recorded values: patent US10597388B2
